assay: Human HepG2 cell viability assay in 384 well format; format: toxicity, cell-based; design: dose 125 nL, time 70.5 hour; concentration not given beside the values; conditions: HepG2 cells, read-out: Inhibition
This listing pairs compounds with measured cytotoxicity at 70.5 h.
Please give a number only; it is taken to be in %.

In the examples that follow, each entry is paired with its recorded cytotoxicity at 70.5 h.
compound: CCn1cc(-c2nn3c(C(F)(F)F)nnc3s2)cn1
units: %
cytotoxicity at 70.5 h: -16.2
--
compound: CCOCC(=O)NC1(c2cccc(Cl)c2)CC1
units: %
cytotoxicity at 70.5 h: -8.22
--
compound: COCC(=O)N1CCC(c2cc3nc(C)cc(C(F)(F)F)n3n2)CC1
units: %
cytotoxicity at 70.5 h: 25.3
--
compound: COCC(=O)N1CCC(c2cc(N(C)C)cc(C)n2)CC1
units: %
cytotoxicity at 70.5 h: 25.5
--
compound: CC1=CC(C)(C)N(CN2C(=O)c3ccccc3C2=O)c2ccccc21
units: %
cytotoxicity at 70.5 h: 0.789
--
compound: COc1cccc(C(=O)N2CCC3(CCC(=O)N(C(C)C)C3)CC2)c1C
units: %
cytotoxicity at 70.5 h: -4.66
--
compound: O=C(c1ncoc1-c1ccco1)N(Cc1ccco1)CC1CCCO1 (centres undefined)
units: %
cytotoxicity at 70.5 h: -3.69
--
compound: OCCO[C@H]1C[C@@H](O)C12CCN(Cc1nc(C(F)(F)F)no1)CC2
units: %
cytotoxicity at 70.5 h: -8.19

Request: Which cytotoxicity at 70.5 h reading was recorded for the compound Clc1ccc(-c2c[nH]c([C@@H]3COCCN3)n2)cc1 ?
Response: -0.826

Request: Then Cc1nc(C2CCCN(C(=O)c3cccc(S(C)(=O)=O)c3)C2)no1 (centres undefined) ?
Response: -9.98

* * *

test: Human HepG2 cell viability assay in 384 well format; assay type: toxicity, cell-based; design: dose 125 nL, time 70.5 hour; concentration not given beside the values; settings: HepG2 cells, read-out: Inhibition
result_type: cytotoxicity at 70.5 h (%)
Respond with the bare value in %.

compound: Cc1nc[nH]c1CN1CCC(CNC(=O)c2cccc3cnccc23)C1 (stereo not drawn)
units: %
cytotoxicity at 70.5 h: -7.78

Request: Report cytotoxicity at 70.5 h for CCc1nn(-c2cc(Oc3cc(C)ccc3C)nc(C)n2)c(N)c1C#N please.
Response: 28.3

Request: And then CC(C)c1noc(-c2ccc(NCCCN3CCCC(O)C3)nc2)n1 (stereo not drawn) , what is it?
Response: -6.37

Request: Subsequent entry: N#Cc1cccc(NC2CC(=O)N(Cc3cccc(F)c3)C2)n1 (stereo not drawn)
Response: -8.43

Request: Follow-up entry: O=C(NCc1ccccc1CN1CCC(O)CC1)Nc1ccccc1
Response: -0.116

Request: Similarly, O=c1c(CN2CCSCC2)coc(O)c1CN1CCCC1 ?
Response: 29.9

* * *

experiment: Human HepG2 cell viability assay in 384 well format; format: toxicity, cell-based; set-up: dose 125 nL, time 70.5 hour; concentration not given beside the values; settings: HepG2 cells, read-out: Inhibition
Examples of molecules with documented cytotoxicity at 70.5 h follow.
Don't forget the unit after the value.

molecule: CCN1CCCC1CNCc1cc2cc3c(cc2[nH]c1=O)OCCO3 (stereo unspecified)
val: -1.38%
//
molecule: O=C(c1ccn(COc2ccc(F)cc2)n1)N1CCCCCC1
val: -3.63%
//
molecule: CN1C[C@H](O)C[C@H]1c1nc(-c2ccc(OC(F)(F)F)cc2)no1
val: -6.54%
//
molecule: Cc1nnc([C@@H]2CC[C@@H]3[C@@H](CCN3CC3CCOCC3)O2)o1
val: -1.38%
//
molecule: COCc1nc(N(C)C)ncc1C(=O)Nc1ccc(Cl)cc1
val: -11.1%

Request: Given Cc1nn(C)c2ncc(CNCCc3ccccn3)cc12 , state its recorded cytotoxicity at 70.5 h.
Response: -8.59%

Request: Cool, now Cc1ccc(CN2CC[C@H](c3nnc(COc4ccc(F)cc4)o3)C2)o1
Response: -6.96%

Request: And the next one, O=C1CCSCC(C(=O)N2CCN(C3CCCCC3)CC2)N1 (stereo unspecified) ?
Response: 0.692%

Request: Try CC(C)c1ccc(C2CC(=O)Nc3c2cnn3C)cc1 (stereo unspecified) next.
Response: -15.6%

Request: Check Cc1ccc(C(=O)N2C[C@@H](OCc3cccnc3)[C@H]3OCCC[C@H]32)o1 too.
Response: 3.45%

Request: Field entry: CCc1ccc2nc(C)cc(C(=O)N[C@@H]3C[C@@H](CO)N(C)C3)c2c1
Response: -3.88%

* * *

experiment: Human HepG2 cell viability assay in 384 well format; type: toxicity, cell-based; design: dose 125 nL, time 70.5 hour; concentration not given beside the values; conditions: HepG2 cells, read-out: Inhibition
Overview of recorded cytotoxicity at 70.5 h for various molecules
Express your answer in %, writing the number without its unit.

Request: So what does the record say about cytotoxicity at 70.5 h for Cn1cc(-c2noc(C3(C)CCOCC3)n2)cn1 ?
Response: 11.7

* * *

assay: Human HepG2 cell viability assay in 384 well format; assay type: toxicity, cell-based; design: dose 125 nL, time 70.5 hour; concentration not given beside the values; conditions: HepG2 cells, read-out: Inhibition
result_type: cytotoxicity at 70.5 h
Dear colleague, please send the value followed by its unit.

Record excerpt, results attached:
compound: Cc1ccc2c(n1)N(CCn1cccn1)CCN(S(C)(=O)=O)C2
cytotoxicity at 70.5 h: 27.2%
--
compound: COCCOc1ccc(NCc2cccc3cn[nH]c23)cn1
cytotoxicity at 70.5 h: -7.69%
--
compound: CN(C)CCNC(=O)CCC1CCN(C(=O)c2ccc(Cl)cc2O)CC1
cytotoxicity at 70.5 h: -8.44%
--
compound: COc1ccc(S(=O)(=O)NCC(N)c2ccccc2)c(C)c1 (centres undefined)
cytotoxicity at 70.5 h: -5.68%
--
compound: CN(CCNC(=O)c1scnc1Cl)c1ccccc1
cytotoxicity at 70.5 h: 2.36%
--
compound: Cn1cc(CCNCc2cc(Cl)c3c(c2)OCCO3)cn1
cytotoxicity at 70.5 h: -2.02%
--
compound: Cc1noc([C@]23COC[C@H]2CN(C(=O)Cc2ccsc2)C3)n1
cytotoxicity at 70.5 h: -2.9%
--
compound: CCOc1ccc(C(=O)N2CCC(Oc3ccccc3)(C(=O)O)CC2)o1
cytotoxicity at 70.5 h: -3.49%
--
compound: O=C(CCc1cc(O)no1)N1CCCC(OCc2cccnc2)C1 (centres undefined)
cytotoxicity at 70.5 h: -10.1%
--
compound: c1ccc(-c2noc(CNC3CCc4ncnn4C3)n2)nc1 (centres undefined)
cytotoxicity at 70.5 h: -4.56%

Request: Consider the compound CC(=O)N1CCC(C)(c2cc(C(=O)NCC3CC3)nc(C)n2)CC1 and give its measured cytotoxicity at 70.5 h.
Response: -1.84%

Request: Same again, this time with Cc1nc(C)n(CC2CCCCN2Cc2nc3ccccc3o2)n1 (centres undefined)
Response: 17.7%

Request: Try the compound COC[C@@H]1CCC[C@]12CN(CCc1ccccc1)CCO2
Response: -12.8%

Request: One more compound: COC(=O)Cn1c(=O)nc2n1C(=O)N(c1ccc(F)cc1)C2
Response: -12.5%

Request: Similarly, Cc1cnc(N2C[C@H]3CN(Cc4csc(C)n4)C(=O)[C@H]3C2)nc1 ?
Response: -9.66%

Request: Next record, please: CC(C)n1ncc2c1NC(=O)C(C#N)C21CCCCC1 (centres undefined)
Response: -9.51%

Request: And what about the compound O=C(CCc1nnc(-c2ccccc2)o1)N1CCCC1c1ccccn1 (centres undefined) ?
Response: 1.97%

Request: Also need Cn1cc(CCNC(=O)N2CCCc3c(F)cccc32)cn1 , thanks.
Response: 3.99%

Request: Quick one: CCc1nc(C)c(CN2CCN(c3ncnc4scc(C)c34)CC2)[nH]1
Response: -9.72%

Request: What about CNC(=O)Cn1nnc(-c2cc3ccccc3o2)n1 ?
Response: -5.34%

Request: Query Cc1cc(CN(C)CCC(O)c2ccccc2)no1 (centres undefined) next
Response: 1.83%

Request: What do we get for Cc1oncc1C(=O)N1CCC2(CC1)CC(c1ccccc1)C(=O)N2C (centres undefined) ?
Response: -19%

Request: Repeat for the following compound: Cc1cc(C(=O)NCCc2c(C)nn(C)c2C)nc(N2CCCCC2)n1
Response: 20.6%

Request: Now consider CCc1nsc(N2CCc3sccc3C2)n1 and answer again.
Response: -2.5%

* * *

test: Human HepG2 cell viability assay in 384 well format; format: toxicity, cell-based; parameters: dose 125 nL, time 70.5 hour; concentration not given beside the values; conditions: HepG2 cells, read-out: Inhibition
result_type: cytotoxicity at 70.5 h (%)
Enter your answer as a number in %; do not include the unit.

Request: What measured cytotoxicity at 70.5 h goes with COc1cccc(Cl)c1C(C(=O)O)N(C)Cc1nnc(C)o1 (stereo not drawn) ?
Response: 11.6

Request: Now consider CC1COCCN1Cc1nc(-c2ccsc2)no1 (stereo not drawn) and answer again.
Response: -3.54
